# System: 292921-168-R-J2-PDC complex spheroid viability;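 further: seven day compound exposure before luminescent viability read; 100% = DMSO vehicle control wells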
# procedureText: Anticancer human tumor 292921-168-R-J2-PDC patient-derived pancreatic carcinoma cell line growth inhibition
# testParameters: second compound 1 µM; first compound 0.0949 µM; stronger effect = lower value
measurementLabel: viability, T/C

Sample records with viability, T/C:
| compound | readoutValue |
| --- | --- |
| Nc1ccccc1NC(=O)c1ccc(CNC(=O)OCc2cccnc2)cc1 + NC1CCC(NC2CC2c2ccccc2)CC1 | 33.4% |
| O=C(C=Cc1cccc(S(=O)(=O)Nc2ccccc2)c1)NO + NC1CCC(NC2CC2c2ccccc2)CC1 | 30.9% |
| CCc1c2c(nc3ccc(O)cc13)-c1cc3c(c(=O)n1C2)COC(=O)[C@]3(O)CC + NC1CCC(NC2CC2c2ccccc2)CC1 | 0.85% |
| Nc1ncn(C2CC(O)C(CO)S2)c(=O)n1 (configuration not stated) + NC1CCC(NC2CC2c2ccccc2)CC1 | 33.6% |
| NS(=O)(=O)OCC1CC(n2ccc3c(NC4CCc5ccccc54)ncnc32)CC1O (configuration not stated) + NC1CCC(NC2CC2c2ccccc2)CC1 | 4.76% |

Could you tell me viability, T/C for each of these compounds? They are listed below.
1. CCN(c1cc(-c2ccc(CN3CCOCC3)cc2)cc(C(=O)NCc2c(C)cc(C)[nH]c2=O)c1C)C1CCOCC1 + NC1CC1c1ccc(-c2cccc(O)c2)cc1
2. NS(=O)(=O)OCC1CC(n2ccc3c(NC4CCc5ccccc54)ncnc32)CC1O (configuration not stated) + NC1CC1c1ccc(-c2cccc(O)c2)cc1

## Output
68.8%
4.08%
